These data points were gathered from the kinase profiling compilation of Christmann-Franck et al. (2016).

Listed compounds paired with reported inhibition
# Target Of Assay: CDK2 (human) (UniProt P24941)
# Run Parameters: compound 1.0 µM
Express it in %; write the number only.

// worked examples, inhibition included
Cc1ccc(-c2nn(C(C)(C)C)c3ncnc(N)c23)cc1 ... 2.5
O=C1NCCc2[nH]c(-c3ccnc(-c4ccccc4F)c3)cc21 ... 7
CS(=O)c1ccc(-c2nc(-c3ccc(F)cc3)c(-c3ccncc3)[nH]2)cc1 (stereo unspecified) ... 0
CS(=O)(=O)CCNCc1ccc(-c2ccc3ncnc(Nc4ccc(OCc5cccc(F)c5)c(Cl)c4)c3c2)o1 ... 0
C#Cc1cccc(Nc2ncnc3cc(OCCOC)c(OCCOC)cc23)c1 ... 0

// switching to the query compound
Form: compound = `O=S(=O)(c1cccc2cnccc12)N1CCCNCC1` ; inhibition = 0
